Assay: inhibitors of the yeast RAM network, primary screen, dse1pr::URA3 reporter, 5-FOA selection (AID 868);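 also: 0% = DMSO-only wells with no growth and 100% = 10 µM 1-NA-PP1 full growth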
Details: S. cerevisiae dse1pr::URA3 reporter, 5-FOA growth OD615, 2 d; at 50 µM; stronger effect = higher value; analog-sensitive cbk1-as2 kinase mutant strain
Among all 190,000 compounds or so, about 3,500 (1.8%) were called active. This excerpt belongs to a sample that is enriched for actives.
Assay endpoint: inhibition (%)
Express it in %; write the number only.

Record excerpt, results attached:
{"Compound": "COCCNC(=O)NC(=O)COC(=O)C1(c2ccc(Cl)cc2)CC1", "inhibition (%)": 0.14}
{"Compound": "CCOC(=O)CC(=O)CSc1nc(-c2ccccc2)cc(-c2ccc(Cl)cc2)c1C#N", "inhibition (%)": 13.1}
{"Compound": "COc1ccc(NC(=O)Cn2c(=O)n(Cc3ccco3)c(=O)c3ccccc32)cc1", "inhibition (%)": 2.68}
{"Compound": "Cc1cc(/C=C2/C(=N)N3C(=NC2=O)SN=C3S(C)(=O)=O)c(C)n1-c1ccccc1", "inhibition (%)": 4.35}
{"Compound": "COc1ccc(C2=CC(c3cccc(OC)c3)n3nnnc3N2)cc1 (stereo not drawn)", "inhibition (%)": 5.23}

What the record says about CCC1CCCCN1C(=O)CSc1nc(C)cc(C)n1 (stereo not drawn) : inhibition is -1.36

What the record says about COc1ccc(OC)c(C2C3=C(N=c4s/c(=C\c5cccc(O)c5)c(=O)n42)c2ccccc2CC3)c1 (stereo not drawn) : inhibition is 12.7

What the record says about `CCSc1nc(-c2ccc(OC)cc2)cc(-c2ccc(OC)cc2)c1C#N` : inhibition is 6.16

What the record says about C=C(C)C1CC=C(C)/C(=N/NC(=O)CCCNc2cccc(C)c2)C1 (stereo not drawn) : inhibition is 0.96

What the record says about `CCc1nnc(NC(=O)c2sc3nc(C)cc(COC)c3c2N)s1` : inhibition is 1.25

What the record says about CC(C)=CCCC1(C)C=Cc2c(ccc3c2[nH]c2cc(O)c(C)cc23)O1 (stereo not drawn) : inhibition is 21.4

What the record says about `CCNC(=S)N(CCc1c(C)[nH]c2ccc(C)cc12)Cc1ccco1` : inhibition is 9.53

###

Experiment: inhibitors of the yeast RAM network, primary screen, dse1pr::URA3 reporter, 5-FOA selection (AID 868);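 also: 0% = DMSO-only wells with no growth and 100% = 10 µM 1-NA-PP1 full growth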
Conditions: S. cerevisiae dse1pr::URA3 reporter, 5-FOA growth OD615, 2 d; at 50 µM; stronger effect = higher value; analog-sensitive cbk1-as2 kinase mutant strain
In all, about 190,000 compounds went through this assay and about 3,500 (1.8%) were called active. The list comes from a sample in which actives are over-represented; it also holds close analogues and randomly drawn compounds.
Assay endpoint: inhibition (%)
Express it in %; write the number only.

What the record says about CC(C(=O)NC1CCCC1)N(c1ccc(Oc2ccccc2)cc1)S(C)(=O)=O (configuration not stated) : inhibition is -0.13

What the record says about `CCn1cc(C(=O)N/N=C(/C)c2ccc(F)cc2)c(=O)c2cc(F)c(N3CCCC3)cc21` : inhibition is 0.79

What the record says about `O=C(c1cccc2ccccc12)N1CCN(c2ccccc2F)CC1` : inhibition is -0.35

What the record says about COc1cccc(NC(=O)CN(C)C(C)C(=O)Nc2ccc(C#N)cc2)c1 (configuration not stated) : inhibition is 1.87

What the record says about `O=C(COC(=O)c1ccccc1C(=O)N1CCN(c2ccccc2)CC1)NCc1ccccc1` : inhibition is 1.15

What the record says about `Cc1cc2[nH]ncc2cc1NC(=S)NC(=O)c1ccccc1` : inhibition is 3.3

What the record says about `CN1CCC(=NNC(=O)CN(c2cccc(Cl)c2)S(C)(=O)=O)CC1` : inhibition is -0.4

What the record says about `COC(=O)c1ccc(C(=O)OC)c(NC(=S)N2CCN(c3cc(Cl)ccc3C)CC2)c1` : inhibition is 3.51

What the record says about `CCN(CC)S(=O)(=O)c1ccc(N(C)Cc2cccc(OC)c2OC)nc1` : inhibition is 2.24

What the record says about `Cc1ccc(C(=O)NC(=S)Nc2ccccc2C)cc1` : inhibition is -0.37

What the record says about `O=C(C(=O)N1CCc2ccccc2C1)N1CCc2ccccc2C1` : inhibition is -0.82

What the record says about `CCOC(=O)c1sc(/N=C/C2=C(O)CC(C)(C)CC2=O)c(C(=O)OCC)c1C` : inhibition is 4.52

What the record says about `CCN(CC)S(=O)(=O)c1ccc(N(C)Cc2ccc(C(F)(F)F)cc2)nc1` : inhibition is 11.1

###

Assay: inhibitors of the yeast RAM network, primary screen, dse1pr::URA3 reporter, 5-FOA selection (AID 868);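 also: 0% = DMSO-only wells with no growth and 100% = 10 µM 1-NA-PP1 full growth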
Details: S. cerevisiae dse1pr::URA3 reporter, 5-FOA growth OD615, 2 d; at 50 µM; stronger effect = higher value; analog-sensitive cbk1-as2 kinase mutant strain
The campaign covered roughly 190,000 compounds. About 3,500 (1.8%) were called active. The list comes from a sample in which actives are over-represented; it also holds close analogues and randomly drawn compounds.
Items are presented alongside their recorded inhibition.
Express it in %; write the number only.

Record excerpt, results attached:
{"Molecule": "COc1cc(/C=C2/C(=O)ON=C2C)ccc1OCc1ccccc1F", "Unit": "%", "Recorded value": 11.4}
{"Molecule": "CCOC(=O)C1(CC2CCCCO2)CCN(Cc2nc(-c3cccs3)oc2C)CC1 (stereo unspecified)", "Unit": "%", "Recorded value": 0.26}
{"Molecule": "CC(=O)C1C(c2ccc(Cl)cc2)c2c(n[nH]c2C)CC1(C)O (stereo unspecified)", "Unit": "%", "Recorded value": -0.49}
{"Molecule": "CCOc1cc(/C=N/O)ccc1OCc1ccccc1F", "Unit": "%", "Recorded value": 0.13}
{"Molecule": "CC1CCCCC1NC(=O)COC(=O)Cc1ccc(Br)cc1 (stereo unspecified)", "Unit": "%", "Recorded value": 1.96}

What the record says about COCC(C)n1c(C)cc(C(=O)COc2ccc(C)nc2[N+](=O)[O-])c1C (stereo unspecified) : inhibition is 1.49

What the record says about `C=CCn1c(CCc2ccc(OC(C)C)cc2)n[nH]c1=S` : inhibition is -0.6

###

Assay: inhibitors of the yeast RAM network, primary screen, dse1pr::URA3 reporter, 5-FOA selection (AID 868);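 also: 0% = DMSO-only wells with no growth and 100% = 10 µM 1-NA-PP1 full growth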
Details: S. cerevisiae dse1pr::URA3 reporter, 5-FOA growth OD615, 2 d; at 50 µM; stronger effect = higher value; analog-sensitive cbk1-as2 kinase mutant strain
Among all 190,000 compounds or so, about 3,500 (1.8%) were called active. The sample holds actives, similar compounds and a random draw of the others, so the mix is not that of the screen.
Items are presented alongside their recorded inhibition.
Express it in %; write the number only.

Record excerpt, results attached:
{"Compound": "Cc1ccc(S(=O)(=O)NC(C)C(=O)Nc2ccccc2C(=O)N2CCCC2)cc1 (configuration not stated)", "Unit": "%", "inhibition": 0.67}
{"Compound": "Cc1ccc(N=Nc2c(C)[nH]n(-c3ccccc3)c2=O)cc1", "Unit": "%", "inhibition": 13.2}
{"Compound": "COc1ccc(OC)c(CNC(=O)c2cc(=O)[nH]c3ccc(S(=O)(=O)N4CCCC4)cc23)c1", "Unit": "%", "inhibition": 2.57}
{"Compound": "Oc1c(Cl)cc(Cl)c(Cl)c1Cc1c(O)c(Cl)cc(Cl)c1Cl", "Unit": "%", "inhibition": 12}

What the record says about `COc1ccc(C(=O)NNS(=O)(=O)c2ccc(C)cc2)cc1` : inhibition is 1.12

What the record says about O=C(NN1C(=O)C2C3C=CC(O3)C2C1=O)c1ccncc1 (configuration not stated) : inhibition is 2.74

What the record says about CSc1nc2c(c(=O)[nH]1)C(c1cccc(Cl)c1Cl)CC(=O)N2 (configuration not stated) : inhibition is 5.93

What the record says about `O=C(CCCN1C(=O)/C(=C/c2ccccc2)SC1=S)Nc1ccc(O)cc1` : inhibition is 0.63

What the record says about `CCCCNC(=O)c1c[nH]c2ccc(S(=O)(=O)Nc3ccc(OCC)cc3)cc2c1=O` : inhibition is 5.33

What the record says about `Cc1c(N=Nc2ccc(N(C)C)cc2)c(=O)n(-c2ccccc2)n1C` : inhibition is 25.4

What the record says about `O=C(CN1CCN(S(=O)(=O)c2ccc(Br)cc2)CC1)Nc1ccccc1C(=O)c1ccccc1` : inhibition is 3.25

What the record says about `O=C(Nc1cc(S(=O)(=O)N2CCOCC2)ccc1Cl)c1cc(=O)c2ccccc2o1` : inhibition is 1.91

What the record says about `Cc1n[nH]c(=O)n1-c1ccc(C(C)C)cc1` : inhibition is 0.86

What the record says about CCOC(=O)NN1C(=O)c2ccccc2NC1c1ccccc1O (configuration not stated) : inhibition is -0.54

What the record says about CCN(C(=O)CSc1nc2ccccc2n1CC)C1CCS(=O)(=O)C1 (configuration not stated) : inhibition is 0.65

###

Experiment: inhibitors of the yeast RAM network, primary screen, dse1pr::URA3 reporter, 5-FOA selection (AID 868);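 also: 0% = DMSO-only wells with no growth and 100% = 10 µM 1-NA-PP1 full growth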
Details: S. cerevisiae dse1pr::URA3 reporter, 5-FOA growth OD615, 2 d; at 50 µM; analog-sensitive cbk1-as2 kinase mutant strain
About 3,500 (1.8%) of roughly 190,000 compounds were called active.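 How the source made its calls: active means inhibition above a set limit, 3 SD over mean compound inhibition (cut at about 8.4% in these data); inactive means the rest.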 What follows is part of a selection rich in actives, with near analogues and random picks from the rest.
Can you answer with just one of these options? active, inactive

# example entries with known answers
{"Molecule": "CCOC(=O)c1sc2nc(CSc3ccccc3)[nH]c(=O)c2c1C", "Qualitative label": "inactive"}
{"Molecule": "NC(=O)CCC(NS(=O)(=O)c1ccc(Cl)cc1)C(=O)NCc1ccccc1Cl (stereo unspecified)", "Qualitative label": "inactive"}

Enquiry: // outcome(item) with item = `CCOC(=O)c1cnc(-n2nc(C)cc2C)nc1NNc1cc(C)nc(-c2ccccc2)n1`
Return: active

Enquiry: // outcome(item) with item = `COc1ccc(Cl)cc1C(=O)NNC(=S)NC1CCCC1`
Return: inactive

Enquiry: // outcome(item) with item = `Clc1ccc(CSc2nnc(/C=C/c3ccccc3)o2)c(Cl)c1`
Return: active
